assay: qHTS to identify inhibitors of the type 1 interferon - major histocompatibility complex class I in skeletal muscle: primary screen against the NCATS Mechanism Interrogation Plate v5.0 (MIPE) Libary (AID 1347411); details: iHSKM cells + IFN-b, HiBiT-tagged MHC-I luminescence, 24 h; series mostly up to 45.8 µM; further: nearly all actives have a fitted effect of over 65% in size
Inconclusive results are not listed. Active and inactive are the calls of the source. The call rests on the fitted dose curve; in most records, active means well fitted inhibition curve with a large enough effect; inconclusive means small, poorly fitted or top-dose-only effect; inactive means no such curve, though single readings can be large or run the other way.
Classes used: active, inactive

molecule=CO[C@H]1/C=C/O[C@@]2(C)Oc3c(C)c(O)c4c(O)c(c5c(nc6cc(C)ccn65)c4c3C2=O)NC(=O)/C(C)=C\C=C\[C@H](C)[C@H](O)[C@@H](C)[C@@H](O)[C@@H](C)[C@H](OC(C)=O)[C@@H]1C assigned_class=inactive
molecule=CC(C)n1c(/C=C/[C@H](O)C[C@H](O)CC(=O)O)c(-c2ccc(F)cc2)c2ccccc21 assigned_class=inactive
molecule=CSC[C@H]1CN(Cc2c[nH]c3c(N)ncnc23)C[C@@H]1O assigned_class=inactive
molecule=CC(=O)N[C@H]1CSSC[C@@H](C(N)=O)NC(=O)[C@H](C(C)C)NC(=O)[C@H](C)NC(=O)[C@H](Cc2cnc[nH]2)NC1=O assigned_class=inactive
molecule=CS[C@H]1SC[C@@H]2C(=O)N(C)[C@H](C(C)C)C(=O)OC[C@H](NC(=O)c3cnc4ccccc4n3)C(=O)N[C@H](C)C(=O)N(C)[C@H]1C(=O)N(C)[C@H](C(C)C)C(=O)OC[C@H](NC(=O)c1cnc3ccccc3n1)C(=O)N[C@H](C)C(=O)N2C assigned_class=active
molecule=O=C(O)CNC(=O)c1nc(Cl)c2ccccc2c1O assigned_class=inactive
molecule=C[C@H]1CNC(=O)c2cnn3ccc(nc23)N[C@H](C)c2cc(F)ccc2O1 assigned_class=active
molecule="NC(CC1c2ccccc2Oc2ccccc21)(C(=O)O)C1CC1C(=O)O (configuration not stated)" assigned_class=inactive
molecule=COc1cc2c3c(n(CCCn4ccnc4)c(=O)c2cc1OC)-c1cc2c(cc1C3=O)OCO2 assigned_class=inactive
molecule=CC(=O)[C@]1(N)Cc2c(O)c3c(c(O)c2[C@@H](O[C@H]2C[C@H](O)[C@H](O)CO2)C1)C(=O)c1ccccc1C3=O assigned_class=inactive
molecule=Cc1cc(Nc2cc(N)ncn2)c(=O)n2c1C(=O)NC21CCCCC1 assigned_class=inactive
molecule=O=C(Nc1ccc(OC(F)(F)Cl)cc1)c1cnc(N2CC[C@@H](O)C2)c(-c2ccn[nH]2)c1 assigned_class=inactive
molecule=C[C@@]12C(=O)OC(=O)[C@]1(C)[C@H]1CC[C@@H]2O1 assigned_class=active
molecule=CCS(=O)(=O)c1ccc2oc(-c3ccc4ccccc4c3)nc2c1 assigned_class=inactive
molecule=CCC(=O)N1CCOc2c(cc(-c3cc(OC)cc(OC)c3)cc2C(=O)N[C@H]2CCCN(C)C2)C1 assigned_class=inactive
molecule=CCOC(=N)c1nc2ccc3ncnc(Nc4cc(F)c(F)cc4Cl)c3c2s1 assigned_class=inactive
molecule=Cc1nc(C)c(CN2CCN(C(c3ccc(F)cc3)c3ccc(F)cc3)CC2)nc1C assigned_class=inactive

Data origin: PubChem BioAssay (NCATS)
